Where do these numbers come from? They come from PubChem BioAssay.

System name: Alpha-2C adrenergic receptor (Homo sapiens)
Assay summary: modulators of alpha2C/GIRK thallium flux, primary screen, cell-based, HEK293 alpha2C/GIRK1/2 (AID 624);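 note: slope of fluorescence ratio to pre-addition baseline per second over 15 to 24 s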
Particulars: thallium flux BTC fluorescence, at 10 µM, actives lie on both sides
Label Yes when slope is strictly below 0.005; at or above that, label No.

Molecule: CC(=O)O[C@H]1C(=O)[C@]2(C)[C@H]([C@H](OC(=O)c3ccccc3)[C@]3(O)C[C@H](OC(=O)[C@H](O)[C@@H](NC(=O)c4ccccc4)c4ccccc4)C(C)=C1C3(C)C)[C@]1(OC(C)=O)CO[C@@H]1C[C@@H]2O
Class assignment: Yes
--
Molecule: C=CCNC(=O)C(C#N)c1nc2ccccc2nc1N1CCCCCC1 (centres undefined)
Class assignment: Yes
--
Molecule: O=c1cc(NCc2ccccc2)nc2n1CCCS2
Class assignment: No
--
Molecule: N#Cc1nc(-c2ccc(Cl)cc2)oc1N1CCCCC1
Class assignment: No
--
Molecule: Cc1ccc(/C(O)=C2/C(=O)C(=O)N(Cc3ccco3)C2c2cccs2)cc1 (centres undefined)
Class assignment: No
--
Molecule: CCOC(=O)c1[nH]c2cc(OC)c(OC)cc2c1NC(=O)C(C)N1CCN(Cc2ccccc2)CC1 (centres undefined)
Class assignment: Yes
--
Molecule: Cc1cccc(N2C(=O)CC(N3CCN(Cc4ccc(Cl)cc4)CC3)C2=O)c1 (centres undefined)
Class assignment: No
--
Molecule: C=C(Br)Cn1c(CCCC)nc2ccccc21
Class assignment: Yes
